Source: ChEMBL document CHEMBL1137152

Form field: pIC50 (one value per entry).
# assay.system: Proto-oncogene tyrosine-protein kinase Src (Homo sapiens, UniProt P12931)
# Sequence (P12931 2-536 limits assumed): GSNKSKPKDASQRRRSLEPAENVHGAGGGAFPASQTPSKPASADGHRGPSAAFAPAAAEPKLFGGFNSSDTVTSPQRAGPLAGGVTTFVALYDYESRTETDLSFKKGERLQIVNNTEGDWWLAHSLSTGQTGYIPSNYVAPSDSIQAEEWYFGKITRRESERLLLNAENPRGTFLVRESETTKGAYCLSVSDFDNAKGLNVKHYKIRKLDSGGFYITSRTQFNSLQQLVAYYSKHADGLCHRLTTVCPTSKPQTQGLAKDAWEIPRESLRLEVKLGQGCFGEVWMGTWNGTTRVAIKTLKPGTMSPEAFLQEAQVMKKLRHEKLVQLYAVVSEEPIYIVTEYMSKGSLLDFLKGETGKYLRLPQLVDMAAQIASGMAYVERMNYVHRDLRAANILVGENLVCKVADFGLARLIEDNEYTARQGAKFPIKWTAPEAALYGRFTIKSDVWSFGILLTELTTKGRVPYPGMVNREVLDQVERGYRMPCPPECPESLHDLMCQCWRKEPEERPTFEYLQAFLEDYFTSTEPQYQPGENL
# protocol: Inhibition of fluorescent (GpYEEI) binding to Src protein tyrosine kinase SH2 domain
Keep it numeric: pIC50 is minus log10 of the concentration in mol/L.

chemical_structure=COC(=O)c1cc(OCC(=O)N[C@@H](Cc2ccccc2)C(=O)NCc2ccc3c(c2)OCO3)cc(C(=O)OC)n1 observed_property=pIC50 measured_value=3.40

Using the record for COC(=O)c1cc(OCC(=O)N[C@@H](Cc2ccccc2)C(=O)NCc2cccc(OC)c2)cc(C(=O)OC)n1 , report its pIC50.
3.18

What about COC(=O)c1cc(OCC(=O)N[C@@H](CC(C)C)C(=O)NCc2cccc(OC)c2)cc(C(=O)OC)n1 ?
3.15

And for COC(=O)c1cc(OCC(=O)N[C@H](C(=O)NCc2ccc3c(c2)OCO3)c2ccccc2)cc(C(=O)OC)n1 ?
3.15

How about COc1ccc(CNC(=O)[C@H](CC(C)C)NC(=O)COc2cc(C(=O)O)cc(C(=O)O)c2)cc1 ?
3.06
